Test: Biodistribution in healthy and SRC bearing rats at 1 h after i.v. injection of radiolabelled compounds
Assay type: in vivo
Settings: healthy and SRC bearing rats, mean ± SD (n = 3)
Outcome: Met for Blood of at least 0.1 % ID/g; Not met for anything lower.

The examples below pair each entry with its known result.
compound="CC[N+](CC)(CC)CCCN1CCCN2CCN(CCCN(CC(=O)O)CC1)CC2.[64Cu+2] [^64Cu-14]" qualitative_label="Not met"
compound="CC[N+](CC)(CC)CCCN1CCCN(Cc2ccccn2)CCNCCCN(Cc2ccccn2)CC1.[64Cu+2] [^64Cu-30]" qualitative_label=Met
compound="CC[N+](CC)(CC)CCCN1CCCNCCN(Cc2ccccn2)CCCNCC1.[64Cu+2] [^64Cu-27]" qualitative_label=Met
compound="CC[N+](CC)(CC)CCCN1CCCN2CCN(CCCN(CC(=O)OC(C)(C)C)CC1)CC2.[64Cu+2] [^64Cu-13]" qualitative_label="Not met"

Let's switch to this compound now.
q: Is Blood at least 0.1 % ID/g? Consider CC[N+](CC)(CC)CCCN1CCCNCCNCCCNCC1.[64Cu+2] [^64Cu-5]
a: Met

###

Experiment: Biodistribution in healthy and SRC bearing rats at 1 h after i.v. injection of radiolabelled compounds
Type: in vivo
Conditions: healthy and SRC bearing rats, mean ± SD (n = 3)
Method: Quantitative biodistribution of radiolabelled compounds was determined in rats: healthy animals as well as rats with primary grade II orthotopic chondrosarcoma at stage Day-30 after induction. […] One hour after injection, animals were then sacrificed by CO2 inhalation, dissected and organs of interest removed, weighed and their radioactivity counted using a gamma counter (Model 1480 Wizard, Perkin Elmer Life Sciences, Boston, USA). […]
observable: Muscle
Note: a bare number is incomplete; add the unit.

molecule="CC[N+](CC)(CC)CCCN1CCCNCCNCCCNCC1.[64Cu+2] [^64Cu-5]" observable=Muscle result="1.5 ± 1.2 % ID/g"
molecule="CC[N+](CC)(CC)CCCN1CCCN(Cc2ccccn2)CCNCCCN(Cc2ccccn2)CC1.[64Cu+2] [^64Cu-30]" observable=Muscle result="0.80 ± 0.4 % ID/g"
molecule="CC[N+](CC)(CC)CCCN1CCCN2CCN(CCCN(CC(=O)OC(C)(C)C)CC1)CC2.[64Cu+2] [^64Cu-13]" observable=Muscle result="0.03 ± 0.01 % ID/g"
molecule="CC[N+](CC)(CC)CCCN1CCNCCNCCNCCNCC1.[64Cu+2] [^64Cu-2]" observable=Muscle result="0.4 ± 0.3 % ID/g"
molecule="CC[N+](CC)(CC)CCCN1CCCN2CCN(CCCN(CC(=O)O)CC1)CC2.[64Cu+2] [^64Cu-14]" observable=Muscle result="0.04 ± 0.00 % ID/g"

// next entry
q: Fill blank: measured Muscle of the molecule CC[N+](CC)(CC)CCCN1CCCNCCN(Cc2ccccn2)CCCNCC1.[64Cu+2] [^64Cu-27] is ____.
a: 0.43 ± 0.15 % ID/g

###

Experiment: Biodistribution in healthy and SRC bearing rats at 1 h after i.v. injection of radiolabelled compounds
Type: in vivo
Settings: healthy and SRC bearing rats, mean ± SD (n = 3)
observable: Articular Cartilage (% ID/g)
One number for each entry, in % ID/g.

compound="CC[N+](CC)(CC)CCCN1CCCNCCN(Cc2ccccn2)CCCNCC1.[64Cu+2] [^64Cu-27]" observable="Articular Cartilage" number=1.5
compound="CC[N+](CC)(CC)CCCN1CCCN2CCN(CCCN(CC(=O)O)CC1)CC2.[64Cu+2] [^64Cu-14]" observable="Articular Cartilage" number=0.11
compound="CC[N+](CC)(CC)CCCN1CCCN2CCN(CCCN(CC(=O)OC(C)(C)C)CC1)CC2.[64Cu+2] [^64Cu-13]" observable="Articular Cartilage" number=0.16

Hi, could you look up Articular Cartilage for each item in my list?
1. CC[N+](CC)(CC)CCCN1CCCNCCNCCCNCC1.[64Cu+2] [^64Cu-5]
2. CC[N+](CC)(CC)CCCN1CCNCCNCCNCCNCC1.[64Cu+2] [^64Cu-2]
3. CC[N+](CC)(CC)CCCN1CCCN(Cc2ccccn2)CCNCCCN(Cc2ccccn2)CC1.[64Cu+2] [^64Cu-30]

a:
5.9
2.6
2.7

Data origin: patent US10351539B2
